# Target System: hTREM2 (Homo sapiens)
# Sequence (Q9NZC2 19-230): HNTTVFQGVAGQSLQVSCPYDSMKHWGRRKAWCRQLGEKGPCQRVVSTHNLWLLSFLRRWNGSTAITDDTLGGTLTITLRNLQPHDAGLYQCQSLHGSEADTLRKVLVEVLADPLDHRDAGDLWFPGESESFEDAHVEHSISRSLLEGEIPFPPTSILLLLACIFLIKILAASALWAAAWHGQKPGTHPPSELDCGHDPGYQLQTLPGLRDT
# Sequence (O43914 22-113 partner): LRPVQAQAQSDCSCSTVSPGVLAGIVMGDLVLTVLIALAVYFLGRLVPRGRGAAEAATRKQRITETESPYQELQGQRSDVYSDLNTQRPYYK
# Assay Overview: TREM2 activity by cellular Syk phosphorylation (AlphaScreen/AlphaLISA) in TREM2/DAP12-HEK cells, used for Examples 1-305
# Format: cell-based
# Design: expressed in transfected cells
# Run Conditions: HEK293 Cells
Readout Type: EC50

Below: 2 compounds and their reported EC50.
INSERT INTO results (substance_smiles, target_system, result) VALUES
  ('Cc1nc2nc(N3CCO[C@@H](c4cnn(C5CC5)c4)C3)nc([C@H]3C[C@@H](C(F)F)C3)c2nc1C', 'hTREM2 (Homo sapiens)', '≤ 50 nM'),
  ('Cc1nc2nc(N3CCO[C@@H](c4cnn(C)c4)C3)cc(-c3ccc(Cl)cc3F)c2nc1C', 'hTREM2 (Homo sapiens)', '≤ 50 nM');

Here's the next entry for you.
## Input What value of EC50 has been reported for the following compound? `Cc1nc2nc(N3CCO[C@@H](c4cnn(C)c4)C3)cc(-c3ccc(F)cc3F)c2nc1C`
## Output ≤ 50 nM
